target: T1, catalytic domain of MMP-14 (cdMMP-14) (human, UniProt P50281 114-287, limits assumed, biotinylated (Sulfo-NHS-LC-Biotin) where immobilised via streptavidin); experiment: ELISA, Fab titrated on immobilised biotin-cdMMP-14, anti-Fab-HRP
T1 construct: also called matrix metalloproteinase-14 catalytic domain; wild-type MMP-14
Provide the recorded pEC50 for the entries that follow.
// pEC50 here means minus log10 of the molar concentration (mol/L)

What measured pEC50 goes with Fab 33D4 (Fab, V domains shown, also called R2C15; not shown: His tag at the C-terminus of the heavy chain) VH: EVQLVESGGGLVQPGGSLRLSCAASGFNIYYSSMHWVRQAPGKGLEWVASISPYSGSTYYADSVKGRFTISADTSKNTAYLQMNSLRAEDTAVYYCARSVHMKLSNKILSGWSWNNSFYAMDYWGQGTLVTVSS VL: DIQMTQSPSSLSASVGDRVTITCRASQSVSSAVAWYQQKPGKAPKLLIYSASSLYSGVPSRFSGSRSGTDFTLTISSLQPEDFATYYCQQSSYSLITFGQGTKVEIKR ?
6.34

And the next one, Fab R3C13 (Fab, V domains shown) VH: EVQLVESGGGLVQPGGSLRLSCAASGFNIYYSYMHWVRQAPGKGLEWVASISSYSGSTSYADSVKGRFTISADTSKNTAYLQMNSLRAEDTAVYYCARWLRVSLKSGVYKVLARAVELDEYVMDYWGQGTLVTVSS VL: DIQMTQSPSSLSASVGDRVTITCRASQSVSSAVAWYQQKPGKAPKLLIYSASSLYSGVPSRFSGSRSGTDFTLTISSLQPEDFATYYCQQSGYYAWPITFGQGTKVEIKR ?
5.70

Same thing, different binder: Fab 32E10 (Fab, V domains shown, also called R2C19; not shown: His tag at the C-terminus of the heavy chain) VH: EVQLVESGGGLVQPGGSLRLSCAASGFNIYSYSMHWVRQAPGKGLEWVAYIYPYSGYTYYADSVKGRFTISADTSKNTAYLQMNSLRAEDTAVYYCARLDRDRYIHVGRAGNTYSNYYYVMDYWGQGTLVTVSS VL: DIQMTQSPSSLSASVGDRVTITCRASQSVSSAVAWYQQKPGKAPKLLIYSASSLYSGVPSRFSGSRSGTDFTLTISSLQPEDFATYYCQQPWGAASLITFGQGTKVEIKR
8.01

Recorded values, source patent US20190185581A1.
